Entries and their IC50
target-entity: PPARγ2 (Mus musculus)
Sequence (P37238 whole entry): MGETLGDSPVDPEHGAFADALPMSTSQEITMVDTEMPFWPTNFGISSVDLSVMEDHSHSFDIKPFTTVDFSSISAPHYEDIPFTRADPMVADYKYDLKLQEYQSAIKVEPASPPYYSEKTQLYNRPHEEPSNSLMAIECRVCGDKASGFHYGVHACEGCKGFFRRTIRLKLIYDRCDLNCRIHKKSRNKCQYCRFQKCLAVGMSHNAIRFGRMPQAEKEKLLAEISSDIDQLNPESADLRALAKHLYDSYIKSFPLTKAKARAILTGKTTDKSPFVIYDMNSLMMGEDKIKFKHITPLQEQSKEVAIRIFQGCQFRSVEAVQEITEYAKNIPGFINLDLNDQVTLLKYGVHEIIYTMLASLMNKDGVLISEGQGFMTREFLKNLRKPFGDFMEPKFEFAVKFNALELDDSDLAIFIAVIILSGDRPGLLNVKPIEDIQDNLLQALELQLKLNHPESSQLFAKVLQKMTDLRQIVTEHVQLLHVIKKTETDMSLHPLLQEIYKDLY
assay: PPRE-Luc luciferase reporter assay of PPARγ2-induced transcriptional activity in 3T3-L1 cells
condition-context: 3T3-L1 cotransfected with PPARγ2 and PPRE-Luc; read-out: IC50 with respect to PPARγ2-induced transcriptional activity

compound: COc1ccc2cc3[n+](cc2c1OC)CCc1cc2c(cc1-3)OCO2 [Berberine]
IC50 (µM): 6.63
--
compound: COc1cc2cc3n(c(=O)c2cc1OC)CNc1cc(Cl)ccc1-3 [Compound 8o]
IC50 (µM): 2.43
--
compound: COc1cc2cc3n(c(=O)c2cc1OC)CNc1ccc(Cl)cc1-3 [Compound 8n]
IC50 (µM): 5.02
--
compound: O=C(Nc1ccccc1)c1cc([N+](=O)[O-])ccc1Cl [GW9662, reference compound]
IC50 (µM): 4.47
